Tested on: Fibroblast
Assay: Incucyte cell viability with human fibroblast; note: unitless GR value; below 1 slowed growth and below 0 cell loss
Assay type: toxicity, cell-based
Conditions: 24 h, 10 µM, compound concentration 10 uM, replicate number 2
Tag: MET if measured Growth Rate is not below 0.7, NOT MET if it is.

> print(dat)
                                    compound  group.label
 1  Cc1ncc(C(=O)Nc2cc(C(C)(C)C)on2)cc1-n1cc(-c2cnn(C)c2C)nn1.Cl          MET
 2  COCCNc1nc2ccc(C#CC3(O)CCCCC3)cc2n1-c1ccnc(N)n1      NOT MET
 3  CCn1c(CNC(=O)c2nc(Cl)cnc2N)[n+](CC)c2ccc(C(=O)N(C)CCN(C)C)cc21.[Cl-]          MET
 4  C/C=C1\C(=O)CC2C3CCC4=CC(=O)CC[C@]4(C)C3CC[C@]12C (some centres undefined)          MET
 5  Cc1nc2cccnc2n2c(-c3cc([C@@]4(O)CCCOC4)ccc3Cl)nnc12          MET
 6  CCCCNc1ncc2c(-c3ccc(CN4CCN(C)CC4)cc3)cn([C@H]3CC[C@H](O)CC3)c2n1      NOT MET
 7  Cc1cc([N+](=O)[O-])c(NS(=O)(=O)c2cccc(C(=O)O)c2)cc1-c1cccnc1 [ALOFANIB]          MET
 8              Oc1c(-c2cccnc2)cnn1-c1ccccn1      NOT MET
 9  N=C(N)NCCC[C@@H](NC(=O)C(c1ccccc1)c1ccccc1)C(=O)NCc1ccc(CNC(N)=O)cc1.O=C(O)C(F)(F)F          MET
10  CC(=O)O.NCCCc1c(C(=O)O)[nH]c2ccc(C(=O)Nc3ccccc3)cc12          MET
11  C=C(F)C(=O)N1CCN(c2nc(OC[C@@H]3CCCN3C)nc3c2CCN(c2cccc4cccc(Cl)c24)C3)C[C@@H]1CC#N [ADAGRASIB]      NOT MET
12  CN(C)CC#Cc1ccc2[nH]c3c(c2c1)-c1nc(N)ncc1CCC3      NOT MET
13  CC(C)[C@H](C(=O)Nc1ccc(C(=O)NO)cc1)c1ccccc1 [AR-42]      NOT MET
14  CC(=O)N(CCN(C)C)c1ccc(N/C(=C2\C(=O)Nc3cc(Cl)ccc32)c2ccccc2)cn1      NOT MET
15  CCOC(=O)C1Cc2ccccc2CN1C(=O)c1ccc(SC)s1 (centres undefined)      NOT MET
16  C[C@@H](CN1CC[C@@]2(C)c3cccc(O)c3C[C@@H]1C2(C)C)OCc1ccccc1.Cl          MET
17  N=C(N)NCCC[C@H](NC(=O)C(c1ccccc1)c1ccccc1)C(=O)NCc1ccc(CNC(N)=O)cc1.O=C(O)C(F)(F)F      NOT MET

---

System: HEK-293T
Experiment: Incucyte cell viability with HEK293T; note: unitless GR value; below 1 slowed growth and below 0 cell loss
Format: toxicity, cell-based
Settings: human, 24 h, 10 µM, compound concentration 10 uM, replicate number 1
Parameter: Growth Rate. Scope: all listed entries.
Metric Name: Growth Rate

Query Smiles	Metric Name	Observed Result
CCC(C)(C)NC(=NC#N)Nc1cccnc1	Growth Rate	0.85
C=CC[C@@H]1/C=C(\C)C[C@H](C)C[C@H](OC)[C@H]2O[C@@](O)(C(=O)C(=O)N3CCCC[C@H]3C(=O)O[C@H](/C(C)=C/[C@@H]3CC[C@@H](O)[C@H](OC)C3)[C@H](C)[C@@H](O)CC1=O)[C@H](C)C[C@@H]2OC.O	Growth Rate	0.87
COc1cc(C(=O)NC2CCN(C)CC2)ccc1Nc1ncc(C(F)(F)F)c(NCc2ccc(C)cc2N(C)S(C)(=O)=O)n1.O=CO.O=CO	Growth Rate	-0.45
CN(C)CCCNc1ccnc(Nc2cccc(Cl)c2)n1	Growth Rate	0.02
CC(=O)Nc1nc2c(Oc3cc(-c4ccc(C(F)(F)F)cc4)ncn3)cccc2s1	Growth Rate	0.89
COc1ccc(CC[C@@H](OC(=O)[C@H]2CCCCN2C(=O)[C@@H](c2cc(OC)c(OC)c(OC)c2)C2CCCCC2)c2cccc(OCCN3CCOCC3)c2)cc1OC	Growth Rate	0.74
COCCN1CCN(CCn2ccc(Nc3ncc4c(n3)-c3c(nn(C)c3-c3ccccc3)C[C@H]4C)n2)CC1	Growth Rate	-0.17
COc1ccc(F)c(F)c1C(=O)c1cnc(NC2CCN(S(C)(=O)=O)CC2)nc1N	Growth Rate	-0.13
Clc1cccc(Nc2nccc(NCCCN3CCOCC3)n2)c1	Growth Rate	0.38

---

Test system: Fibroblast
Experiment: Incucyte cell viability with human fibroblast; note: unitless GR value; below 1 slowed growth and below 0 cell loss
Type: toxicity, cell-based
Settings: 18 h, 10 µM, compound concentration 10 uM, replicate number 1
Tag: satisfied if measured Growth Rate is not below 0.6, not satisfied if it is.

Molecule	Group Label
Clc1ccccc1C(c1ccccc1)(c1ccccc1)n1ccnc1	not satisfied
O=C(CCCN1CCC(O)(c2ccc(Cl)cc2)CC1)c1ccc(F)cc1	not satisfied
C=CC(=O)Nc1ccc2[nH]c(=O)n(C3CCN(Cc4ccc(-c5ccc6c(c5)NC(=O)CO6)cc4)CC3)c2c1	satisfied
Cc1cc2nc(N3CCC(C(=O)NC4CCCC4)CC3)n(C(C)C)c2cc1C	not satisfied
COc1cc(O)c(C(CC(=O)N2C[C@H](C)C[C@H](C)C2)c2ccc3c(c2)OCO3)c(OC)c1 (some centres undefined)	not satisfied
N#Cc1ccc(C#CC[C@@H](C#N)NC(=O)[C@@H]2CCCCN2)cc1F	satisfied
COc1ccc(S(=O)(=O)N2CCOCC2)cc1Nc1ccc2c(n1)N(C1CCN(C)CC1)[C@H](C)C(=O)N2C	satisfied
C[C@]12CC[C@@H]3c4ccc(O)cc4CC[C@H]3[C@@H]1C[C@H]1OC(=O)C[C@]12O	not satisfied

---

System: Fibroblast
Experiment: Incucyte cell viability with human fibroblast; note: unitless GR value; below 1 slowed growth and below 0 cell loss
Type: toxicity, cell-based
Conditions: 0 h, 10 µM, compound concentration 10 uM, replicate number 2
Parameter: Growth Rate. Scope: all listed entries.
Metric Name: Growth Rate

> print(dat)
                               query.smiles  observed.result
1  COc1ccc(C(F)(F)F)cc1NC(=O)Nc1ccc(Oc2cc(C)nc(N)n2)c2ccccc12            -0.09
2  CC(=O)O.Cc1cc2c(ncn2C2(C)CN(C(=O)c3ccn(CC4CCN([C@H]5C=CCCCC5)CC4)c3)C2)c(N)n1             0.45
3  CN(C)C/C=C/C(=O)Nc1cccc(C(=O)Nc2ccc(Nc3nccc(-c4cccnc4)n3)cc2)c1             0.35
4  CC[C@@H](Nc1c(C#N)c(-c2ccc(-c3cccc(C)c3F)cc2)nc2cnccc12)C(=O)O            -0.33

---

System: U2OS
Experiment: Incucyte cell viability with U2OS; note: unitless GR value; below 1 slowed growth and below 0 cell loss
Assay type: toxicity, cell-based
Conditions: human, 12 h, 10 µM, compound concentration 10 uM, replicate number 1
Tag: class 1 if measured Growth Rate is not below 0.8, class 0 if it is.

Compound	Group Label
COC(=O)c1cc2c(cn1)[nH]c1ccccc12	class 0
CC(=O)N1CCC(c2ccc(C(=O)NC(=N)N)cc2C(F)(F)F)CC1	class 0
COc1ccc(-c2c(-c3ccccc3)oc3ncnc(O[C@H](C)CCCCC(=O)O)c23)cc1	class 1
CO[C@H]1C[C@@H]2CC[C@@H](C)[C@@](O)(O2)C(=O)C(=O)N2CCCC[C@H]2C(=O)O[C@H]([C@H](C)C[C@@H]2CC[C@@H](O)[C@H](OC)C2)CC(=O)[C@H](C)/C=C(\C)[C@@H](O)[C@@H](OC)C(=O)[C@H](C)C[C@H](C)/C=C/C=C/C=C/1C	class 1
CC1CCN(C(=O)[C@H](CCn2cccc2C#N)NS(=O)(=O)c2cccc3[nH]ccc23)CC1	class 1
Cc1c(NC(=O)COc2ccc(Cl)cc2C(=O)c2cc(F)cc(C(F)(F)F)c2)ccc(C(=O)O)c1F	class 0
CC(=O)Nc1c(F)cc(C(=O)N[C@H]2CC[C@H](O)CC2)cc1O[C@@H](C)c1ccccc1	class 0
Cc1cc(-c2cnc(N)c3c(-c4ccc5scnc5c4)csc23)n(C)n1	class 1
C[C@H](CCC(=O)O)[C@H]1CC[C@H]2[C@@H]3CC[C@@H]4C[C@H](O)CC[C@]4(C)[C@H]3C[C@H](O)[C@]12C	class 0
Cc1cc(Nc2cc(N)ncn2)c(=O)n2c1C(=O)NC21CCCCC1	class 1
CC(Oc1cc(-c2cnn(C3CCNCC3)c2)cnc1N)c1c(Cl)ccc(F)c1Cl (stereo not given)	class 0
[2H]C([2H])([2H])NC(=O)c1nnc(NC(=O)C2CC2)cc1Nc1cccc(-c2ncn(C)n2)c1OC	class 0
O=c1cc(-c2ccccc2)oc2c1ccc1ccccc12	class 0
CC(C)(C)c1cnc(CSc2cnc(NC(=O)C3CCN(CC(=O)NCCOCCOCCOCCNc4cccc5c4C(=O)N(C4CCC(=O)NC4=O)C5=O)CC3)s2)o1 (stereo not given)	class 0

Taken from ChEMBL document CHEMBL5303304.
